Overview of recorded inhibition at 100 µM for various compounds
# tgt: bovine eNOS (Bos taurus, UniProt P29473)
# Construct: Full-length recombinant rat nNOS, mouse iNOS, bovine eNOS; made in house; host or cells: Escherichia coli
# Sequence (P29473 whole entry): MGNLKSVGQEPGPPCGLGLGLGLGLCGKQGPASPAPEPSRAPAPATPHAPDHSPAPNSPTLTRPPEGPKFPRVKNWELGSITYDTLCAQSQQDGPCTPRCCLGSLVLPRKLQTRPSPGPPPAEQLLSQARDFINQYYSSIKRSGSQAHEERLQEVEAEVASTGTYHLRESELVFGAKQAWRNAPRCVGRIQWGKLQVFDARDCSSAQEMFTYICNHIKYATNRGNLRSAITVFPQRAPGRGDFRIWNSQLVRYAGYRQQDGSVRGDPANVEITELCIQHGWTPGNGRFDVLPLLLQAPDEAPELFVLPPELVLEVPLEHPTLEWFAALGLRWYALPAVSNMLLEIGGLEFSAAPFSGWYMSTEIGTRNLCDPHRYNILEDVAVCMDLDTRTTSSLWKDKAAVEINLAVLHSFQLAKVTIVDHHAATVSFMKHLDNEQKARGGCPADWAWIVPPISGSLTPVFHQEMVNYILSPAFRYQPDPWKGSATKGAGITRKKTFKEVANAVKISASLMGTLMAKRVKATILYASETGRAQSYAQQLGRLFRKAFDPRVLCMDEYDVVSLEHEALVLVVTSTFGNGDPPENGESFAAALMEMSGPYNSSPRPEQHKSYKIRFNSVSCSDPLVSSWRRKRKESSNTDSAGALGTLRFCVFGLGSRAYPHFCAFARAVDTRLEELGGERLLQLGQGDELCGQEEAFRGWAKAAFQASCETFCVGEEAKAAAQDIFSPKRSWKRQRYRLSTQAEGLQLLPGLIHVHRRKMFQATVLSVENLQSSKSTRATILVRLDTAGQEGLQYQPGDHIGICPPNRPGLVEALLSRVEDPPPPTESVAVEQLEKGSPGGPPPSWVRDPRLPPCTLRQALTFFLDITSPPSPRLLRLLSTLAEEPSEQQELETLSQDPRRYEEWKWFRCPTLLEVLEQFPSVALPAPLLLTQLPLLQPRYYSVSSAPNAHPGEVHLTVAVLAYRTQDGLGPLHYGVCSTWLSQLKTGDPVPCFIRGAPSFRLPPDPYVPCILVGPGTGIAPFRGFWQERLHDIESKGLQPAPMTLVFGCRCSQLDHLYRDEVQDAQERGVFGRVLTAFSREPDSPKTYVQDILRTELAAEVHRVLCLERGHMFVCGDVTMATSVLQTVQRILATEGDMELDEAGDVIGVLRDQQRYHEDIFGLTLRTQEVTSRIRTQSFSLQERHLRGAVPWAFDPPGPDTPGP
# assay-protocol: NOS inhibition, oxyhemoglobin (hemoglobin capture) test, recombinant eNOS
# Assay type: biochemical
# experimental-setup: dipeptide-like series; recombinant enzyme, 10 µM arginine, triplicate; NI = <50% inhibition at 100 μM; read-out: IC50 (μM) eNOS (Bovine)

Past entries and their recorded results:
CCSC(=N)NCCC[C@H](N)C(=O)N[C@H]1CCCN(Cc2ccccc2O)C1; < 50%
CCSC(=N)NCCC[C@H](N)C(=O)N[C@H]1CCCN(Cc2ccc3ccccc3c2)C1; < 50%
CCSC(=N)NCCC[C@H](N)C(=O)N[C@H]1CCCN(Cc2ccc(Cl)c(C(F)(F)F)c2)C1; < 50%
CCSC(=N)NCCC[C@H](N)C(=O)N[C@@H]1CCCN(Cc2ccccc2[N+](=O)[O-])C1; < 50%
CCSC(=N)NCCC[C@H](N)C(=O)N[C@H]1CCCN(Cc2ccc(C(F)(F)F)c(Cl)c2)C1; < 50%

For the compound shown here, `CCSC(=N)NCCC[C@H](N)C(=O)N[C@H]1CCCN(Cc2cccc(C(F)(F)F)c2)C1` , give the reported inhibition at 100 µM.
< 50%

What inhibition at 100 µM value was documented for this compound, `CCSC(=N)NCCC[C@H](N)C(=O)N[C@H]1CCCN(Cc2ccccc2)C1` ?
< 50%

GET /values?readout=inhibition at 100 µM&item= `CCSC(=N)NCCC[C@H](N)C(=O)N[C@@H]1CCCN(Cc2ccccc2)C1`
< 50%

Looking for the measured inhibition at 100 µM of `CCSC(=N)NCCC[C@H](N)C(=O)N[C@H]1CCCN(Cc2cc(O)ccc2[N+](=O)[O-])C1` , can you help?
< 50%
